These measurements were taken from patent US20260159596A1.

Target: T1, recombinant DR3 (DR3-His tag) (human, UniProt Q93038 25-199, limits assumed)
T1 construct: it is treated as the same reagent; also called rDR3; death receptor 3; not shown: His tag
T1 sequence (looked up): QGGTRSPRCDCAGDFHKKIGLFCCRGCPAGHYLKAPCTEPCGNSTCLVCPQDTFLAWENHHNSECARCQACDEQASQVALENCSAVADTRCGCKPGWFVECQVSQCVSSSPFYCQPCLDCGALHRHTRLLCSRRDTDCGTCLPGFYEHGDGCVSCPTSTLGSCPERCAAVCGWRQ
Assay: phage ELISA of single scFv clones on recombinant DR3
OBSERVATION_TYPE: binding result

[[record]]
binder = "anti-DR3 scFv clone 3-18 (phage display) (scFv, V domains shown) VH: QVQLQQSGPGLVKPSETLSLTCTVSGGSISSSSYYWGWIRQPPGKGLEWIGSIYYSGSTYYNPSLKSRVTISVDTSKNQFSLKLSSVTAADTAVYYCARQVSGPLDYWGQGTLVTVS VL: DIVMTQSPSSLSASVGDRVTITCRASQGIRNDLGWYQQKPGKAPKLLIYAASSLQSGVPSRFSGSGSGTDFTLTISSLQPEDFATYYCLQDYNYPRTFGQGTKVEIK"
recorded_measurement = "binds"

[[record]]
binder = "anti-DR3 scFv clone 6-15 (phage display) (scFv, V domains shown) VH: QVQLVQSGGGLVQPGGSLRLSCAASGFTFSSYSMNWVRQAPGKGLEWVSYISSSSSTIYYADSVKGRFTISRDNAKNSLYLQMNSLRAEDTAVYYCARWDGYCSGGSCYSGMDYWGQGTLVTVS VL: DIEMTQSPSSLSASVGDKVTITCQASQDISNYLNWYQQKPGKAPKLLIYDASNLETGVPSRFSGSGSGTDSTFTISSLQPEDIATYYCQQYDNLPLTFGGGTKVEIK"
recorded_measurement = "binds"

[[record]]
binder = "anti-DR3 scFv clone 4-4 (phage display) (scFv, V domains shown) VH: EVQLVESGGGLVKPGGSLRLSCAASGFTFSDYYMSWIRQAPGKGLEWVSYISSSSSYTNYADSVKGRFTISRDNAKNSLYLQMNSLRAEDTAVYYCASNVDTAMVGAFDIWGQGTLVTVS VL: DIEMTQSPSSVSASVGDTVTITCRASQHISNWLAWYQQKPGQAPKFLIYTASNLQSGVPSRFSGSGYGTDFTLTISGLQPEDFATYYCQQADSFPLTFGGGTKVDIK"
recorded_measurement = "binds"

[[record]]
binder = "anti-DR3 scFv clone 2-10 (phage display) (scFv, V domains shown) VH: QVQLVQSGAEVKKPGASVKVSCKASGYTFTSYGISWVRQAPGQGLEWMGWISAYNGNTNYAQKLQGRVTMTTDTSTSTAYMELRSLRSDDTAVYYCASGPDYGMLDYWGQGTLVTVS VL: EIVMTQSPSSLPASVGDRVTITCQASQDISNYLNWYQQKPGKAPKLLIYDASNLETGVPSRFSGSGSGTDFTFTISSPQPEDIATYYCQQYDNLPLTFGGGTKVEIK"
recorded_measurement = "binds"

